Provenance of the data: ChEMBL document CHEMBL3785031

assay: Half life in human liver microsomes at 1 uM by HPLC-MS/MS analysis; assay type: ADME
Readout: half-life at 1 µM (min)
Respond with the bare value in min.

| Molecule | Test result |
| --- | --- |
| c1ccc2c(c1)CC(CN1CCC3(CCc4ccccc43)CC1)CO2 (stereo not drawn) | 3.1 |
| Oc1ccc2c(c1)CC(CN1CCC3(CCc4ccccc43)CC1)NC2 (stereo not drawn) | 18 |
| Oc1cccc2c1CNC(CN1CCC3(CCc4ccccc43)CC1)C2 (stereo not drawn) | 12.2 |
| Cc1cc(F)ccc1C1CCN(CC2Cc3c(Cl)ccc(O)c3CN2)CC1 (stereo not drawn) | 21.6 |
| c1ccc2c(c1)CNC(CN1CCC3(CCc4ccccc43)CC1)C2 (stereo not drawn) | 6.6 |
| Cc1cc(F)ccc1C1CCN(CC2Cc3ccccc3CN2)CC1 (stereo not drawn) | 6.9 |
| Oc1ccc(Cl)c2c1CNC(CN1CCC3(CCc4ccccc43)CC1)C2 (stereo not drawn) | 15.3 |

The reported half-life at 1 µM of the molecule Oc1ccc(Br)c2c1CNC(CN1CCC3(CCc4ccccc43)CC1)C2 (stereo not drawn) was 9.6

----------
For reference, Ki measured on Mu-type opioid receptor (Homo sapiens, UniProt P35372):
Note: unit µM is implicit; provide only the numeric part.

Please review the following examples before continuing.
| Compound | Result unit | Ki |
| --- | --- | --- |
| Cc1cc(F)ccc1C1CCN(CC2Cc3ccccc3CN2)CC1 (stereo not given) | µM | 0.342 |
| Oc1ccc(Cl)c2c1CNC(CN1CCC3(CCc4ccccc43)CC1)C2 (stereo not given) | µM | 0.0688 |
| CN1C(=O)c2ccccc2CC1CN1CCC2(CCc3ccccc32)CC1 (stereo not given) | µM | 0.231 |

Per the records, this compound ( CN1Cc2ccccc2CC1CN1CCC2(CCc3ccccc32)CC1 (stereo not given) ) has Ki equal to 0.0582

Reported Ki for Oc1ccc(Br)c2c1CNC(CN1CCC3(CCc4ccccc43)CC1)C2 (stereo not given) was 0.139

----------
Measured pKi on Nociceptin receptor (Homo sapiens) follows.
Sequence (P41146 whole entry): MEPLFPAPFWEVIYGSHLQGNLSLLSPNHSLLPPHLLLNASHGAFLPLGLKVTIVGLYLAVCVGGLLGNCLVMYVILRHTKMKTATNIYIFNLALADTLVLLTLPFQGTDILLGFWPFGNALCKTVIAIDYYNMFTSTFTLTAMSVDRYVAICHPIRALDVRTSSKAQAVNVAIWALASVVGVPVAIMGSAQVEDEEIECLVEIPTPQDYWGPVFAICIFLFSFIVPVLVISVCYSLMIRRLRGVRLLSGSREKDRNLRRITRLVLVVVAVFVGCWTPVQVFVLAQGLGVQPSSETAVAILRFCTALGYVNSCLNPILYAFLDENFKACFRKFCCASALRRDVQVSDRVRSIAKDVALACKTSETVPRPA
Notebook: values listed as pKi are -log10 of the concentration (mol/L).

Reference set (6 entries):
| Compound | pKi |
| --- | --- |
| c1ccc2c(c1)CCC(CN1CCC3(CCc4ccccc43)CC1)C2 (stereo unspecified) | 8.26 |
| c1ccc2c(c1)CNC(CN1CCC3(CCc4ccccc43)CC1)C2 (stereo unspecified) | 8.07 |
| c1ccc2c(c1)CC(CN1CCC3(CCc4ccccc43)CC1)CO2 (stereo unspecified) | 8.25 |
| Oc1cccc2c1CNC(CN1CCC3(CCc4ccccc43)CC1)C2 (stereo unspecified) | 8.62 |
| CN1Cc2ccccc2CC1CN1CCC2(CCc3ccccc32)CC1 (stereo unspecified) | 7.72 |
| Oc1ccc(Cl)c2c1CNC(CN1CCC3(CCc4ccccc43)CC1)C2 (stereo unspecified) | 8.66 |

Assay Nociceptin receptor (Homo sapiens), sample Oc1ccc2c(c1)CC(CN1CCC3(CCc4ccccc43)CC1)NC2 (stereo unspecified) , pKi read: 7.99

Measured pKi (Nociceptin receptor (Homo sapiens)), entry Cc1cc(F)ccc1C1CCN(CC2Cc3ccccc3CN2)CC1 (stereo unspecified) : 8.45

Value sought: pKi, system Nociceptin receptor (Homo sapiens), item CC(=O)N1Cc2ccccc2CC1CN1CCC2(CCc3ccccc32)CC1 (stereo unspecified) . Result: 7.53

Per the reported Nociceptin receptor (Homo sapiens) data, Oc1ccc(Br)c2c1CNC(CN1CCC3(CCc4ccccc43)CC1)C2 (stereo unspecified) has pKi of 8.76

Record NC(=O)N1Cc2ccccc2CC1CN1CCC2(CCc3ccccc32)CC1 (stereo unspecified) / Nociceptin receptor (Homo sapiens), pKi recorded as 7.74
